Target: T1, recombinant RSV protein G, G(B): residues 66-292 of strain 18537 (human respiratory syncytial virus …, UniProt P20896 66-292)
T1 construct: also called soluble recombinant G protein; recombinant protein G
T1 sequence: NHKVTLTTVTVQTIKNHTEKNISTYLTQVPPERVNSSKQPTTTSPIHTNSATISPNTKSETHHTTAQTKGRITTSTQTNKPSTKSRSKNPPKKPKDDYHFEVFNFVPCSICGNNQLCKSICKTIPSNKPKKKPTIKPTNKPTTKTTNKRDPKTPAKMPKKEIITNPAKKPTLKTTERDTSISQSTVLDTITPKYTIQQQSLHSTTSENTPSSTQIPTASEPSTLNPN
Assay: SPR Biacore 3000, Fab over amine-coupled recombinant protein G
Measured property: Kd (nM)

| Binder | Reported value |
| --- | --- |
| Fab fragment of antibody 853 (Fab, also called Fab clone 853) VH: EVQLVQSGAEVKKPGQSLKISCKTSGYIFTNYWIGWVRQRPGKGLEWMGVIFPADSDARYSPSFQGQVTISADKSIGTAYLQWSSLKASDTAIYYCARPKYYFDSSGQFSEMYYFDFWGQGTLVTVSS light: EIVLTQSPGTLSLSPGERATLSCRASQSVSSNYLAWYQQKPGQAPRLLIYGASSRAAGMPDRFSGSGSGTDFTLTISRLEPEDFAVYYCQQYGNSPLTFGGGTEVEIKRTVAAPSVFIFPPSDEQLKSGTASVVCLLNNFYPREAKVQWKVDNALQSGNSQESVTEQDSKDSTYSLSSTLTLSKADYEKHKVYACEVTHQGLSSPVTKSFNRGEC | 0.79 |
